# RP-LC retention time per entry
experiment: gradient 5% acetonitrile 3 min, to 50% in 2 min, to 85% in 15 min, held 3 min, 100 µL/min; settings: column: Zorbax Extend-C18 2.1 x 50 mm; eluents: water / acetonitrile, 0.1% formic acid
attribute_measured: RP-LC retention time (s)

compound	scale_unit	obs_value
COc1ccccc1CNC(=O)C1CCC(=O)N1S(=O)(=O)c1ccc(C)c(C)c1 (stereo not given)	s	913
CCCN1C(=O)COc2ccc(-c3csc(NC(=O)c4cccc(Br)c4)n3)cc21	s	1160
CCc1ccc2c(c1)c(=O)c(C(=O)c1ccccc1)cn2CC(=O)Nc1cccc(Cl)c1	s	892
Cc1cc(C)cc(NC(=O)CN2C(=O)CCc3cc(S(=O)(=O)N4CCCCC4C)ccc32)c1 (stereo not given)	s	930
Cc1cccc(OCc2ccc(-c3nc(C#N)c(NCCN(C)C)o3)o2)c1	s	708
CCC1Oc2ccc(S(=O)(=O)N3CCC(C(=O)Nc4ccccc4C)CC3)cc2NC1=O (stereo not given)	s	814
CCCC(=O)Nc1ccc2c(c1)Sc1ncccc1C(=O)N2CC	s	724
CCc1noc(NC(C)=O)c1-c1ccc(OC)c(S(=O)(=O)Nc2ccc(C(C)C)cc2)c1	s	891
CC(C)(C)C1CCC2(CC1)CCN(CCCN1CCOCC1)CC2	s	619
COCCNC(=O)CCc1cc2ccc(C)cc2[nH]c1=O	s	614
Cc1csc(-c2cc(S(=O)(=O)NCc3cccs3)c(C)n2C)n1	s	924
Cc1cc2nc(C(=O)Nc3cccc(C)c3C)cc(C)n2n1	s	1020
N#Cc1cccc(-c2cn3c(n2)N(C(=O)C2CCCO2)CCC3)c1 (stereo not given)	s	703
O=C(COc1ccc(Cl)cc1)N1CCN(c2nc(CN3CCOCC3)cs2)CC1	s	643
COc1ccc(Cl)cc1S(=O)(=O)N1CCCC(C(=O)NCCCOC(C)C)C1 (stereo not given)	s	855
c1ccc(-c2noc(-c3cc(N4CCOCC4)nc4ccccc34)n2)cc1	s	1240
CC(C)(CO)NC(=O)Cc1ccc(NS(=O)(=O)/C=C/c2ccccc2)cc1	s	686
COc1cccc(CC(=O)N2CCC(c3cc(N)on3)CC2)c1	s	663
Cc1cc(C)cc(NC(=O)C2CCCN(S(=O)(=O)c3c[nH]c(C(=O)N4CCCCCC4)c3)C2)c1 (stereo not given)	s	955
COc1cccc(CNC(=O)N2CCN(c3cnn4c(C)nnc4c3)CC2)c1	s	658

###

assay: gradient 5% acetonitrile 3 min, to 50% in 2 min, to 85% in 15 min, held 3 min, 100 µL/min; conditions: column: Zorbax Extend-C18 2.1 x 50 mm; eluents: water / acetonitrile, 0.1% formic acid
Categorized via RP-LC retention time: class 1: < 700 s; class 2: ≥ 700 s and < 900 s; class 3: ≥ 900 s

molecule	classification
Fc1cccc(Cl)c1CN1CC(c2nc(C3CC3)no2)C1	class 1
Fc1cccc(-c2noc(Cc3nc(-c4ccccc4Cl)cs3)n2)c1	class 3
O=C(Cn1ncccc1=O)N1CCN(c2ccc(-c3ccco3)nn2)CC1	class 1
COc1cccc(-c2ccc(=O)n(CCc3nc(-c4ccc(F)cc4)no3)n2)c1	class 3
CCCn1cc(CCNC(=O)Nc2cc(F)ccc2F)c2cccnc21	class 2
CCOC(=O)c1c(C)c(CCC(=O)N2CCN(c3ncccn3)CC2)n(C)c1C	class 2
CCS(=O)(=O)N1CC(=O)N(c2ccc(C)c(C)c2)C(C)(C(=O)NCc2ccc(F)cc2)C1 (stereo not drawn)	class 2
Cc1nnc(-c2cc(C)n(CC(=O)Nc3ccc(Cl)cc3C)c2C)o1	class 2
O=C(NCc1ccc(Cl)cc1)C1CCN(c2cn[nH]c(=O)c2)CC1	class 1
Cn1c(SCC(=O)Nc2nc(-c3ccccc3)cs2)nnc1-c1cc2ccccc2o1	class 3
CC(C)NC(=O)N1CCC(N2C(=O)C3(CCCC3)C2c2ccccc2)CC1 (stereo not drawn)	class 2
COc1c(Sc2ccc([N+](=O)[O-])cc2)c(C)nn1-c1ccccc1	class 3
CC(CCc1ccccc1)NC(=O)CCc1c(-c2ccc(Cl)cc2)nc2ccccn12 (stereo not drawn)	class 2
COC(=O)c1c(C)c(C(=O)C(C)N(CC(C)C)C(=O)c2ccc(Cl)cc2)c(C)n1C (stereo not drawn)	class 3
CNCc1ccc(-c2[nH]c3cc(F)cc4c3c2CCNC4=O)cc1	class 1
O=C(c1ccc(OCC2CCCN2C(=O)c2ccccc2F)cc1)N1CCCC1 (stereo not drawn)	class 2
O=C(c1ccc(Cl)cc1)N1CCN(c2ccc([N+](=O)[O-])c3ncccc23)CC1	class 3
O=C(NCc1ccc2c(c1)OCO2)C(=O)Nc1ccon1	class 1
CC1CCCN(S(=O)(=O)c2cc(C(=O)N3CCCc4ccccc43)n(C)c2)C1 (stereo not drawn)	class 3
Cc1nccn1-c1cc(C(C)C)c(C#N)c2nc3ccccc3n12	class 1
Cc1ccccc1CC(=O)N1CCN(c2nc(CN3CCOCC3)cs2)CC1	class 1
Cc1[nH]c(C(=O)N2CCC(CC(=O)NC3CCCCCC3)CC2)c(C)c1C	class 2
Cc1nc(Cn2cccc2C(=O)N2CCN(c3cccc(Cl)c3)CC2)no1	class 3
CCN(CC)C(=O)COc1cc(C(F)(F)F)c2c(C)nn(-c3ccc(C)cc3)c2n1	class 3
CCc1ccccc1NC(=O)N1CCC2(CC1)NC(=O)c1cccc(Cl)c1N2	class 2
COc1ccccc1-c1noc(Cn2ncn3nc(-c4cccs4)cc3c2=O)n1	class 3
Cc1ccc(-c2csc(NC(=O)CCc3nc(CSc4nc5ccccc5o4)no3)n2)cc1	class 3
CNC(=O)N1CCCC(c2cccc(C(=O)N3CCN(c4ccccc4F)CC3)c2)C1 (stereo not drawn)	class 2
COc1ccccc1N1CCN(C(=O)c2cc(NC(=O)C(C)C)cc3nc(C)ccc23)CC1	class 1

###

experiment: gradient 5% acetonitrile 3 min, to 50% in 2 min, to 85% in 15 min, held 3 min, 100 µL/min; conditions: column: Zorbax Extend-C18 2.1 x 50 mm; eluents: water / acetonitrile, 0.1% formic acid
Mark MET only when RP-LC retention time stays strictly below 800 s. Values equal to the cut-off are NOT MET.

molecule	classification
COC(=O)c1nnn(-c2cc(Cl)ccc2C)c1C(=O)OC	NOT MET
Cc1nc(N)n(CC(=O)NCc2ccc(F)cc2)c(=O)c1C	NOT MET
O=S(=O)(Nc1ccc2c(c1)OCO2)c1ccc2nncn2c1	MET
CCn1cc(C2=CCN(S(=O)(=O)c3cccc(F)c3)CC2)c2cccnc21	NOT MET
Cc1nnc(-c2ccc3ccn(CC(=O)Nc4cccc(Cl)c4)c3c2)o1	NOT MET
CN1CCN(CCCNC(=O)C2CCN(S(=O)(=O)c3ccc4c(c3)sc(=O)n4C)CC2)CC1	MET
CCn1cc(C(=O)NC2CCCC2)c2nn(-c3ccccc3)c(=O)c-2c1	NOT MET
CN1C(=O)C(C)(C)COc2cc(NS(=O)(=O)Cc3cccc(Cl)c3)ccc21	NOT MET
O=C(CC1CCN(C(=O)C2CCCCC2)CC1)NCCCN1CCCC1	MET
CCOC(=O)c1c(C)n(C)c2ccc(OCCN(C)C)cc12	MET
O=C(NC1CCCCC1)NC1CCN(C(=O)C2CC2)C1 (stereo not given)	MET
Cc1ccc2nc(C(=O)N3CCC(C)CC3)cc(Nc3ccc(N(C)C)cc3)c2c1	MET
CCc1cccc(C)c1Nc1c(-c2cccc(O)c2)nc2nc(C)cc(C)n12	MET
CC(C)N1CCN(C(=O)CC2Sc3ncccc3N(C)C2=O)CC1 (stereo not given)	MET
O=c1[nH]cc(S(=O)(=O)N2CCCCCC2)c(=O)[nH]1	MET
CCOc1ccc(CNC(=O)C2CCCN(c3cc(=O)n(C)c(=O)n3C)C2)cc1 (stereo not given)	MET
O=C(N1CCC(Cc2ccc(COc3cccnc3)cc2)CC1)C1(c2ccccc2)CC1	NOT MET
O=c1c(S(=O)(=O)N2CCCCCC2)cccn1Cc1cccc(F)c1	NOT MET
Cc1noc(CNC(=O)CSCc2ccccc2)n1	MET
COc1ccc2[nH]cc(CCNC(=O)c3cc(S(=O)(=O)N4CCSCC4)ccc3Cl)c2c1	NOT MET
O=C(CN1C(=O)CC(c2ccccc2)S(=O)(=O)c2ccccc21)Nc1cccc(F)c1 (stereo not given)	NOT MET
CCN1C(=O)c2cc(S(=O)(=O)Nc3ccc(C)cc3F)ccc2Oc2cccnc21	NOT MET
Cc1nc(CC(=O)NCc2ccc(F)cc2F)sc1C(=O)NCC(C)C	MET
O=S(=O)(c1ccccc1Cl)N1CC(F)(F)C[C@H]1COc1cccnc1	MET
O=C(Cn1nc2c(N3CCc4ccccc4C3)nccn2c1=O)NCCC1=CCCCC1	NOT MET
Cc1cc(=O)n(CCOc2ccc(F)cc2)c(N2CCSCC2)n1	NOT MET
Cc1cccc(Sc2nccnc2N2CCC(C(=O)N3CCOCC3)CC2)c1	NOT MET
CCCc1ccc(S(=O)(=O)N2CCC3(CC2)NCCCN=C3NC2CCCC2)cc1	NOT MET
Cc1cc(NC(=O)CSc2ccc(-c3cccc([N+](=O)[O-])c3)nn2)no1	MET
CCOC(=O)CNC(=O)N1CCN(Cc2nc3cccnc3n2-c2ccc(C)cc2)CC1	MET
Cc1ccc(CNC(=O)C2CCN(C(=O)c3cc(-c4ccncc4)n[nH]3)CC2)o1	MET
COc1cccc(C2C(C(=O)NCCC(C)C)c3ccccc3C(=O)N2C2CC2)c1 (stereo not given)	NOT MET
Cc1cc(C)cc(N2CCC(NC(=O)c3sccc3C)C2=O)c1 (stereo not given)	NOT MET
CSc1ccccc1CN1CCC(CNC(=O)Nc2c(F)cccc2F)CC1	MET
Cc1cccc(NC(=O)N2CCC(N3CCN(Cc4ccccc4)C3=O)CC2)c1	NOT MET

Source listed as the METLIN SMRT retention time set (Domingo-Almenara et al. 2019).
